Species: Rattus norvegicus
protocol description: Open TG-GATES - Regimen: Single
Type: toxicity, organism-based, Sprague-Dawley
Set-up: regimen Single, gender Male, age 6 weeks
condition description: in vivo, po, 300 mg/kg, 3 h, tissue Plasma, route gavage, dose level Middle
endpoint name: RALB (g/dL)

[
  {
    "molecule": "CCOC(=O)CCC(=O)O[C@H]1[C@H](O[C@@H]2[C@@H](C)[C@H](O[C@H]3C[C@@](C)(OC)[C@@H](O)[C@H](C)O3)[C@@H](C)C(=O)O[C@H](CC)[C@@](C)(O)[C@H](O)[C@@H](C)C(=O)[C@H](C)C[C@@]2(C)O)O[C@H](C)C[C@@H]1N(C)C [ERYTHROMYCIN ETHYLSUCCINATE]",
    "endpoint name": "RALB",
    "value units": "g/dL",
    "number": 2.9
  },
  {
    "molecule": "COc1ccc2[nH]c([S+]([O-])Cc3ncc(C)c(OC)c3C)nc2c1 (centres undefined)",
    "endpoint name": "RALB",
    "value units": "g/dL",
    "number": 3.3
  },
  {
    "molecule": "NC(N)=Nc1nc(CSCCC(N)=NS(N)(=O)=O)cs1",
    "endpoint name": "RALB",
    "value units": "g/dL",
    "number": 3.4
  },
  {
    "molecule": "COC1=CC(=O)C[C@@H](C)[C@]12Oc1c(Cl)c(OC)cc(OC)c1C2=O",
    "endpoint name": "RALB",
    "value units": "g/dL",
    "number": 3.3
  }
]

---

Species on record: Rattus norvegicus
protocol description: Open TG-GATES - Regimen: Daily Repeat
Format: toxicity, organism-based, Sprague-Dawley
Design: regimen Daily Repeat, gender Male, age 6 weeks
condition description: in vivo, po, 0 mg/kg, […], tissue Plasma, route gavage, dose level Control, time 7 day

[
  {
    "molecule": "NNC(=O)c1ccncc1",
    "ALT": "33 IU/L"
  },
  {
    "molecule": "CCCNC(=O)NS(=O)(=O)c1ccc(Cl)cc1 [CHLORPROPAMIDE]",
    "ALT": "43.2 IU/L"
  },
  {
    "molecule": "CCOc1ccc(NC(=O)CC(C)O)cc1 (stereo not drawn)",
    "ALT": "32.2 IU/L"
  },
  {
    "molecule": "CC(C)OC(=O)C(C)(C)Oc1ccc(C(=O)c2ccc(Cl)cc2)cc1 [FENOFIBRATE]",
    "ALT": "47.8 IU/L"
  },
  {
    "molecule": "CN1C(=O)CN=C(c2ccccc2)c2cc(Cl)ccc21",
    "ALT": "37.2 IU/L"
  },
  {
    "molecule": "O=C(CCCN1CCC(O)(c2ccc(Cl)cc2)CC1)c1ccc(F)cc1",
    "ALT": "33.4 IU/L"
  },
  {
    "molecule": "CC1=C(/C=C/C(C)=C/C=C/C(C)=C/CO)C(C)(C)CCC1",
    "ALT": "39.6 IU/L"
  },
  {
    "molecule": "NC(N)=Nc1nc(CSCCC(N)=NS(N)(=O)=O)cs1",
    "ALT": "39.6 IU/L"
  }
]

---

Species: Rattus norvegicus
protocol description: Open TG-GATES - Regimen: Daily Repeat
Format: toxicity, organism-based, Sprague-Dawley
Parameters: regimen Daily Repeat, gender Male, age 6 weeks
condition description: in vivo, po, 0 mg/kg, […], tissue Kidney, route gavage, dose level Control, time 14 day
Examples of compounds with documented KIDNEY_L follow.
endpoint name: KIDNEY_L (g)

[
  {
    "compound": "CCCNC(=O)NS(=O)(=O)c1ccc(Cl)cc1 [CHLORPROPAMIDE]",
    "number": 1.2
  },
  {
    "compound": "NNC(=O)c1ccncc1",
    "number": 1.1
  },
  {
    "compound": "CN1C(=O)CN=C(c2ccccc2)c2cc(Cl)ccc21",
    "number": 1.3
  },
  {
    "compound": "CN(C)CCN(Cc1cccs1)c1ccccn1",
    "number": 1.1
  },
  {
    "compound": "CC(C)OC(=O)C(C)(C)Oc1ccc(C(=O)c2ccc(Cl)cc2)cc1 [FENOFIBRATE]",
    "number": 1.2
  },
  {
    "compound": "O=C(CCCN1CCC(O)(c2ccc(Cl)cc2)CC1)c1ccc(F)cc1",
    "number": 1.2
  },
  {
    "compound": "CCOc1ccc(NC(=O)CC(C)O)cc1 (stereo not given)",
    "number": 1.5
  },
  {
    "compound": "NC(N)=Nc1nc(CSCCC(N)=NS(N)(=O)=O)cs1",
    "number": 1.3
  },
  {
    "compound": "COc1ccc2[nH]c([S+]([O-])Cc3ncc(C)c(OC)c3C)nc2c1 (stereo not given)",
    "number": 1.3
  },
  {
    "compound": "CC1=C(/C=C/C(C)=C/C=C/C(C)=C/CO)C(C)(C)CCC1",
    "number": 1.2
  }
]

---

Species: Rattus norvegicus
protocol description: Open TG-GATES - Regimen: Daily Repeat
Format: toxicity, organism-based, Sprague-Dawley
Set-up: regimen Daily Repeat, gender Male, age 6 weeks
condition description: in vivo, po, 0 mg/kg, […], tissue Plasma, route gavage, dose level Control, time 7 day
Examples of molecules with documented Cl follow.
endpoint name: Cl (meq/L)

[
  {
    "molecule": "NNC(=O)c1ccncc1",
    "number": 105
  },
  {
    "molecule": "CCOc1ccc(NC(=O)CC(C)O)cc1 (stereo not given)",
    "number": 105.2
  },
  {
    "molecule": "CCOC(=O)CCC(=O)O[C@H]1[C@H](O[C@@H]2[C@@H](C)[C@H](O[C@H]3C[C@@](C)(OC)[C@@H](O)[C@H](C)O3)[C@@H](C)C(=O)O[C@H](CC)[C@@](C)(O)[C@H](O)[C@@H](C)C(=O)[C@H](C)C[C@@]2(C)O)O[C@H](C)C[C@@H]1N(C)C [ERYTHROMYCIN ETHYLSUCCINATE]",
    "number": 107.6
  },
  {
    "molecule": "COC1=CC(=O)C[C@@H](C)[C@]12Oc1c(Cl)c(OC)cc(OC)c1C2=O",
    "number": 103.4
  },
  {
    "molecule": "CN(C)CCN(Cc1cccs1)c1ccccn1",
    "number": 107.4
  },
  {
    "molecule": "CC1=C(/C=C/C(C)=C/C=C/C(C)=C/CO)C(C)(C)CCC1",
    "number": 106.4
  },
  {
    "molecule": "O=C(CCCN1CCC(O)(c2ccc(Cl)cc2)CC1)c1ccc(F)cc1",
    "number": 104.8
  },
  {
    "molecule": "COc1ccc2[nH]c([S+]([O-])Cc3ncc(C)c(OC)c3C)nc2c1 (stereo not given)",
    "number": 100.8
  },
  {
    "molecule": "NC(N)=Nc1nc(CSCCC(N)=NS(N)(=O)=O)cs1",
    "number": 102.8
  },
  {
    "molecule": "CCCNC(=O)NS(=O)(=O)c1ccc(Cl)cc1 [CHLORPROPAMIDE]",
    "number": 106
  }
]

---

Species on record: Rattus norvegicus
protocol description: Open TG-GATES - Regimen: Daily Repeat
Type: toxicity, organism-based, Sprague-Dawley
Set-up: regimen Daily Repeat, gender Male, age 6 weeks
condition description: in vivo, po, 300 mg/kg, […], tissue Plasma, route gavage, dose level Middle, time 7 day
endpoint name: Ca (mg/dL)

[
  {
    "compound": "COc1ccc2[nH]c([S+]([O-])Cc3ncc(C)c(OC)c3C)nc2c1 (stereo not given)",
    "number": 10.8
  },
  {
    "compound": "CCOC(=O)CCC(=O)O[C@H]1[C@H](O[C@@H]2[C@@H](C)[C@H](O[C@H]3C[C@@](C)(OC)[C@@H](O)[C@H](C)O3)[C@@H](C)C(=O)O[C@H](CC)[C@@](C)(O)[C@H](O)[C@@H](C)C(=O)[C@H](C)C[C@@]2(C)O)O[C@H](C)C[C@@H]1N(C)C [ERYTHROMYCIN ETHYLSUCCINATE]",
    "number": 10.6
  },
  {
    "compound": "COC1=CC(=O)C[C@@H](C)[C@]12Oc1c(Cl)c(OC)cc(OC)c1C2=O",
    "number": 10.7
  },
  {
    "compound": "CCOc1ccc(NC(=O)CC(C)O)cc1 (stereo not given)",
    "number": 11
  },
  {
    "compound": "NC(N)=Nc1nc(CSCCC(N)=NS(N)(=O)=O)cs1",
    "number": 10.8
  }
]
